Test system: human-derived tracheal/bronchial epithelial cells (EpiAirway Tissue Model)
experimental.details: FITC-Dextran permeation assay across epithelial cell monolayer
Type: cell-based
experimental.conditions: lipid 1000 μM (Table 5)
% FITC-Dextran Permeation FD3 listing for selected compounds.
measured.endpoint: % FITC-Dextran Permeation FD3 (%)

>>> experimental_result("CCCCCCCCCCCCC/C=C/[C@@H](O)[C@@H](N)CO[C@@H]1O[C@H](CO)[C@@H](O[C@@H]2O[C@H](CO)[C@H](O)[C@H](O)[C@H]2O)[C@H](O)[C@H]1O")
8
>>> experimental_result("CCCCCCCCCCCCCCCCOC[C@H](COP(=O)([O-])OCC[N+](C)(C)C)OC(C)=O")
22
>>> experimental_result("CCCCCCCCCCCCCCCCOC[C@@H](O)COP(=O)([O-])OCC[N+](C)(C)C")
8

====

System: human-derived tracheal/bronchial epithelial cells (EpiAirway Tissue Model)
experimental.details: in vitro
experimental.conditions: human, 1 h, 1000 μM
As shown below, each of these compounds has a reported Mean % Relative Cytotoxic Effect (LDH) value.
measured.endpoint: Mean % Relative Cytotoxic Effect (LDH)

>>> experimental_result("CCCCCCCCCCCCCCCCCCOC[C@H](COP(=O)([O-])OCC[N+](C)(C)C)OC")
"−1%"
>>> experimental_result("CCCCCCCCCCCCCCCCOC[C@H](COP(=O)([O-])OCC[N+](C)(C)C)OC(=O)CCC")
"22%"
>>> experimental_result("CCCCCCCCCCCCCCCCCCOC[C@H](COP(=O)([O-])OCC[N+](C)(C)C)OC(=O)CCC")
"−3%"
>>> experimental_result("CCCCCCCCCCCCCCCCOC[C@H](CO)OC(C)=O")
"−3%"
>>> experimental_result("CCCCCCCC/C=C\\CCCCCCCC(=O)O[C@H](COCCCCCCCCCCCCCCCC)COP(=O)([O-])OCC[N+](C)(C)C")
"−2%"
>>> experimental_result("CCCCCCCCCCCCCCCCOC[C@H](COP(=O)([O-])OCC[N+](C)(C)C)OC(=O)CCCCCCCC(=O)O")
"3%"
>>> experimental_result("C=CCC(=O)O[C@H](COCCCCCCCCCCCCCCCC)COP(=O)([O-])OCC[N+](C)(C)C")
"27%"
>>> experimental_result("CCCCCCCCCCCCCCCCCCOC[C@H](COP(=O)([O-])OCC[N+](C)(C)C)OC(C)=O")
"20%"

====

System: human-derived tracheal/bronchial epithelial cells (EpiAirway Tissue Model)
experimental.details: Transepithelial electrical resistance (TER) of an epithelial cell monolayer
Type: cell-based
experimental.conditions: Homo sapiens, Epithelial cell, 1 h; lipid 1000 μM; lower value = greater TER reduction (Table 4); read-out: Mean % of Original TER Value
# activity at 1000 µM >= 80% gives MET, anything below gives NOT MET

>>> group("CCCCCCCC/C=C\\CCCCCCCC(=O)O[C@H](COCCCCCCCCCCCCCCCC)COP(=O)([O-])OCC[N+](C)(C)C")
"MET"
>>> group("CCCCCCCCCCCCCCCCOC[C@H](CO)OC(C)=O")
"MET"
>>> group("CCCCCCCCCCCCCCCCOC[C@H](COP(=O)([O-])OCC[N+](C)(C)C)OC(=O)CCC")
"NOT MET"
>>> group("C=CCC(=O)O[C@H](COCCCCCCCCCCCCCCCC)COP(=O)([O-])OCC[N+](C)(C)C")
"NOT MET"
>>> group("CCCCCCCCCCCCCCCCOC[C@H](COP(=O)([O-])OCC[N+](C)(C)C)OC(C)=O")
"NOT MET"
>>> group("CCCCCCCCCCCCCCCC(=O)OC[C@H](COP(=O)([O-])OCC[N+](C)(C)C)OC(C)=O")
"NOT MET"
>>> group("CCCCCCCCCCCCCCCCCCOC[C@H](COP(=O)([O-])OCC[N+](C)(C)C)OC(=O)CCC")
"MET"

From: patent US20070077283A1
